# MEASURED_ON: PIP4K2C (Homo sapiens)
# Sequence (Q8TBX8 whole entry): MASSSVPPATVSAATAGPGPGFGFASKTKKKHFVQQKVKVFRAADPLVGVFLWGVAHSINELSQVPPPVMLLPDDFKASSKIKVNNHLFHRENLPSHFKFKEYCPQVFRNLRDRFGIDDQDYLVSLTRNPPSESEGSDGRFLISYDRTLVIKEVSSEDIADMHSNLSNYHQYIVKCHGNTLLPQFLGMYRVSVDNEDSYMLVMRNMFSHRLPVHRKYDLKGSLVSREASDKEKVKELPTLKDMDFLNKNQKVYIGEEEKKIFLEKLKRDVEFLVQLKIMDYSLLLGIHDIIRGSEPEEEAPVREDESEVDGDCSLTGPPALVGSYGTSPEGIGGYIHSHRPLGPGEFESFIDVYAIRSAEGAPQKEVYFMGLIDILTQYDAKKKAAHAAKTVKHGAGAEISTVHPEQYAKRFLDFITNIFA
# EXPERIMENTAL_PROTOCOL: HiBiT PIP4K2C degradation assay in MOLT-4 cells (endogenous PIP4K2C C-terminally tagged with HiBiT)
# Type: cell-based
# Set-up: untagged in primary human PBMCs and monocyte-derived dendritic cells
# PROTOCOL_CONDITIONS: 24 hours incubation, MOLT-4, top concentration 10 micromolar; read-out: HiBIT-degradation MOLT4 PIP4k2C 24 hours DC50
Entries annotated with measured DC50
RECORDED_ENDPOINT: DC50

COMPOUND: O=C1CCC(Nc2ccc(C3CCN(CC4CCN(CC(=O)N[C@H]5CC[C@H](Nc6ncc(F)c(-c7cccc(-n8ccccc8=O)c7)n6)CC5)CC4)CC3)c(F)c2)C(=O)N1 (stereo partly shown)
RECORDED_VALUE: < 500 nM
//
COMPOUND: O=C1CCC(N2Cc3cc(OC4CCN(C(=O)CC5CCN(C(=O)[C@H]6CCC[C@@H](Nc7ncc(Cl)c(-c8cccc(-c9ccccc9)c8)n7)C6)CC5)CC4)ccc3C2=O)C(=O)N1 (relative stereo)
RECORDED_VALUE: < 500 nM
//
COMPOUND: Cn1c(=O)n(C2CCC(=O)NC2=O)c2ccc(C3CCN(CC4CCN(CC(=O)N[C@H]5CC[C@H](Nc6ncc(Cl)c(-c7cccc(-c8ccc(F)cc8)c7)n6)CC5)CC4)CC3)cc21 (stereo partly shown)
RECORDED_VALUE: < 500 nM
//
COMPOUND: O=C1CCC(N2Cc3cc(OC4CCN(C(=O)CN5CCC(C(=O)N6CCC(Nc7ncc(Cl)c(-c8cccc(-c9ccccc9)c8)n7)CC6)CC5)CC4)ccc3C2=O)C(=O)N1 (stereo not shown)
RECORDED_VALUE: < 500 nM
//
COMPOUND: O=C1CCC(Nc2ccc(N3CCC(N4CCN(CCC(=O)N5CCC(Nc6ncc(Cl)c(-c7cccc(-c8ccccc8)c7)n6)CC5)CC4)CC3)cc2)C(=O)N1 (stereo not shown)
RECORDED_VALUE: < 500 nM
//
COMPOUND: Cn1c(=O)n(C2CCC(=O)NC2=O)c2ccc(C3CCN(CCC4CCN(C(=O)[C@H]5CCC[C@@H](Nc6ncc(Cl)c(-c7cccc(-c8ccccc8)c7)n6)C5)CC4)CC3)cc21 (relative stereo) [Compound 52]
RECORDED_VALUE: < 500 nM
//
COMPOUND: Cn1c(=O)n(C2CCC(=O)NC2=O)c2ccc(C3CCN(CCN4CCC(C(=O)N5CCC[C@H](Nc6ncc(Cl)c(-c7cccc(-c8ccccc8)c7)n6)C5)CC4)CC3)cc21 (stereo partly shown)
RECORDED_VALUE: < 500 nM
//
COMPOUND: O=C(COc1cccc2c1C(=O)N(C1CCC(=O)NC1=O)C2=O)NCCCCCCCCCC(=O)N1CCC(Nc2ncc(Cl)c(-c3cccc(-c4ccccc4)c3)n2)CC1 (stereo not shown)
RECORDED_VALUE: 500 to 1000 nM
//
COMPOUND: Cn1c(=O)n(C2CCC(=O)NC2=O)c2ccc(C3CCN(CCC4CCN(C(=O)[C@@H]5CCC[C@H](Nc6ncc(Cl)c(-c7cccc(-c8ccccc8)c7)n6)C5)CC4)CC3)cc21 (stereo partly shown)
RECORDED_VALUE: < 500 nM
//
COMPOUND: Cn1nc(N2CCC(=O)NC2=O)c2ccc(C3CCN(CC(=O)N4CCC(O)(C(=O)N5CCC(Nc6ncc(F)c(-c7cccc(-n8ccccc8=O)c7)n6)CC5)CC4)CC3)cc21
RECORDED_VALUE: > 5000 nM

Recorded values, source patent US20260355196A1.
